Target: HER2 (Homo sapiens, UniProt P04626)
Construct: purchased Carna Biosciences, Inc; host or cells: insect cell expression system
Sequence (P04626 23-1255): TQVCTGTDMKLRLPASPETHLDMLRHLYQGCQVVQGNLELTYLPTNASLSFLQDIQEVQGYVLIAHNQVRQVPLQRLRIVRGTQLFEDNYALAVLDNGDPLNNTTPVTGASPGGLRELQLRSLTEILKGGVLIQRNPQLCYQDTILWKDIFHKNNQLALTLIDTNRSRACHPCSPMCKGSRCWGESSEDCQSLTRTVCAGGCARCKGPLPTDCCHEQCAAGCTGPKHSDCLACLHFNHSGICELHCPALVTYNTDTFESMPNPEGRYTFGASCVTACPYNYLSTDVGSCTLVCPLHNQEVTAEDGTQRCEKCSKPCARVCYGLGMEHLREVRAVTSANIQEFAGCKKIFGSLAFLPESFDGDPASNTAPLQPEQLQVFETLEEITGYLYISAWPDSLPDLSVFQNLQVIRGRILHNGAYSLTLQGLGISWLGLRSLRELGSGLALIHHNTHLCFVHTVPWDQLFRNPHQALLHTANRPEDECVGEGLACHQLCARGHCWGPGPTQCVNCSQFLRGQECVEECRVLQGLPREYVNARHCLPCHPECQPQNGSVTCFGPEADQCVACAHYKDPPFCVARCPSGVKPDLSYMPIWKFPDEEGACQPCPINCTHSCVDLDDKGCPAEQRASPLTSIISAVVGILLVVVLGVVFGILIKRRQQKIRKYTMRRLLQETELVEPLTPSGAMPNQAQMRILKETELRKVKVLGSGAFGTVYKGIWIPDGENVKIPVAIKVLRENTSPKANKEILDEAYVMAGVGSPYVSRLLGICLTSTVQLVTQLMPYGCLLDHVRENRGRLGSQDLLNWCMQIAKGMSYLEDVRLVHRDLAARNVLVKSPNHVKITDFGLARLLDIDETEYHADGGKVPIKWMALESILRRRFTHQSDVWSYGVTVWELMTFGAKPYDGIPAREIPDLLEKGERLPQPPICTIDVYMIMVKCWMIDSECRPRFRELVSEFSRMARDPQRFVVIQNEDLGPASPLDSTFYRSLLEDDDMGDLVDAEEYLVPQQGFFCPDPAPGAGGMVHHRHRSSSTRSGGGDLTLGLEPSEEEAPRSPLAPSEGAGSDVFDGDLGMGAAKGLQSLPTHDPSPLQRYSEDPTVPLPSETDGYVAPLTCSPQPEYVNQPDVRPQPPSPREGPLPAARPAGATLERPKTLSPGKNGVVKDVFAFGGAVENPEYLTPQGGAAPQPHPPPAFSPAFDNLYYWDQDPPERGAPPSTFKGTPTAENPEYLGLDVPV
Experiment: Enzyme inhibitory activity on HER2 (time resolution fluorescence, biotinylated poly-Glu-Tyr substrate)
Format: biochemical
Settings: HER2 purified from insect cell expression system; ATP solution 290 μM; room temperature, 60 minutes
result.type: IC50 (nM)
Reply numerically in nM, unit not repeated.

Below: 3 molecules and their reported IC50.
molecule="CC#C/C(=N\\OCCNCCOC(N)=O)c1ccc2ncnc(Nc3ccc(OCc4cccc(F)c4)c(Cl)c3)c2c1 [VIII-53]" unit_symbol=nM measurement=80
molecule="CC#C/C(=N\\OC[C@@H]1CCCN1CCOC)c1ccc2ncnc(Nc3ccc(OCc4cccc(F)c4)c(Cl)c3)c2c1 [VIII-74]" unit_symbol=nM measurement=150
molecule="CC#CC(=NOCC1CCC(=O)N1)c1ccc2ncnc(Nc3ccc(OCc4cccc(F)c4)c(Cl)c3)c2c1 (stereo not shown) [VIII-78]" unit_symbol=nM measurement=410

Now look at this entry.
Consider the molecule CC#C/C(=N\OCCNC[C@H]1CCC(=O)N1)c1ccc2ncnc(Nc3ccc(OCc4cccc(F)c4)c(Cl)c3)c2c1 [VIII-52] and give its measured IC50. 28

====

Target: HER2 (Homo sapiens)
Construct: purchased Carna Biosciences, Inc; host or cells: insect cell expression system
Experiment: Enzyme inhibitory activity on HER2 (time resolution fluorescence, biotinylated poly-Glu-Tyr substrate)
Assay type: biochemical
Settings: HER2 purified from insect cell expression system; ATP solution 290 μM; room temperature, 60 minutes
Measured IC50 values are reported for all entries that follow.
Reply numerically in nM, unit not repeated.

Below: 3 molecules and their reported IC50.
smiles_code=CC#C/C(=N\OC[C@H]1COCCN1)c1ccc2ncnc(Nc3ccc(OCc4cccc(F)c4)c(Cl)c3)c2c1 measurement_target="HER2 (Homo sapiens)" unit_symbol=nM measurement=121
smiles_code=CC#C/C(=N\OCCN1CCN(C)CC1)c1ccc2ncnc(Nc3ccc(OCc4cccc(F)c4)c(Cl)c3)c2c1 measurement_target="HER2 (Homo sapiens)" unit_symbol=nM measurement=20
smiles_code=CC#C/C(=N\OC[C@H]1CCCN1CC#N)c1ccc2ncnc(Nc3ccc(OCc4cccc(F)c4)c(Cl)c3)c2c1 measurement_target="HER2 (Homo sapiens)" unit_symbol=nM measurement=304

Now look at this entry.
Consider the molecule `CC#C/C(=N\OC[C@H]1CCCN1CC(=O)OC)c1ccc2ncnc(Nc3ccc(OCc4cccc(F)c4)c(Cl)c3)c2c1` and give its measured IC50. 476

====

Biological target: EGFR (Homo sapiens, UniProt P00533)
Construct: purchased Carna Biosciences, Inc; host or cells: insect cell expression system
Sequence (P00533 25-1210): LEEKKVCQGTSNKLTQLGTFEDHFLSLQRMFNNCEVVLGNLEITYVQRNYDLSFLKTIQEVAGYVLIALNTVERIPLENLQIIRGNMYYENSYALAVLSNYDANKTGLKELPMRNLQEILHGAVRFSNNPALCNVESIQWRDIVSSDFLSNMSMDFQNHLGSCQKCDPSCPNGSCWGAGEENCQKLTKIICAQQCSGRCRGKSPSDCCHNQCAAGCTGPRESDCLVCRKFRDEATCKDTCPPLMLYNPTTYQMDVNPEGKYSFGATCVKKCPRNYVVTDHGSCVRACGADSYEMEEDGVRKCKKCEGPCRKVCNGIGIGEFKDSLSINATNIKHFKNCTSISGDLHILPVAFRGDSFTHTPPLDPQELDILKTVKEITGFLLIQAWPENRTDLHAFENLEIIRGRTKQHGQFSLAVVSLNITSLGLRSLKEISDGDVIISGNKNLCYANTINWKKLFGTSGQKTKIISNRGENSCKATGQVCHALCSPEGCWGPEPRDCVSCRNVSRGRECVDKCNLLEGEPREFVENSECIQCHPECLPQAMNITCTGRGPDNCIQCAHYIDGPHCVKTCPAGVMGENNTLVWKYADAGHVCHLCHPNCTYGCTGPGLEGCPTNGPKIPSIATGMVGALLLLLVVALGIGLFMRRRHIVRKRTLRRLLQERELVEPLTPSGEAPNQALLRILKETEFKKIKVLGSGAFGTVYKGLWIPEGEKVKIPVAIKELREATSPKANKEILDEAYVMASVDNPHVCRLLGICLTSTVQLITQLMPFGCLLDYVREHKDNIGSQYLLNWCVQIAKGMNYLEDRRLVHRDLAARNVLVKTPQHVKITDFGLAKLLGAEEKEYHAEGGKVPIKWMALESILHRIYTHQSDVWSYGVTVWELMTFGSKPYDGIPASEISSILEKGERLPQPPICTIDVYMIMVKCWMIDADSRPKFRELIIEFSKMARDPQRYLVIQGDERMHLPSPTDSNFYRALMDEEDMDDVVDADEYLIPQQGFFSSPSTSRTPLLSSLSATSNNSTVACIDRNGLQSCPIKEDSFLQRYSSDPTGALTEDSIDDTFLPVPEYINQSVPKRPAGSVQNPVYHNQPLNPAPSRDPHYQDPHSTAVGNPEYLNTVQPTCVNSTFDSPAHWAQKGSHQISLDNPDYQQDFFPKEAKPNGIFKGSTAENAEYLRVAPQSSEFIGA
Assay: Enzyme inhibitory activity on EGFR (time resolution fluorescence, biotinylated poly-Glu-Tyr substrate)
Format: biochemical
Conditions: enzyme reaction at room temperature for 60 minutes
Measured log10 IC50 values are reported for all entries that follow.
# values: log10(IC50), units nM

compound=CC#C/C(=N\OCCNCCOC(N)=O)c1ccc2ncnc(Nc3ccc4c(cnn4Cc4cccc(F)c4)c3)c2c1 result_type="log10 IC50" measurement=1.00

Consider the compound `CC#C/C(=N\OCCN1CCCC1)c1ccc2ncnc(Nc3ccc(OCc4ccccn4)c(Cl)c3)c2c1` and give its measured log10 IC50. 0.79

Consider the compound `CC#C/C(=N\OC[C@@H]1CCCN1CCO)c1ccc2ncnc(Nc3ccc(OCc4ccccn4)c(Cl)c3)c2c1` and give its measured log10 IC50. 1.23

Consider the compound `Fc1cccc(COc2ccc(Nc3ncnc4ccc(/C=N/N5CCCCC5)cc34)cc2Cl)c1` and give its measured log10 IC50. 2.29

Consider the compound `CC#C/C(=N\OCCNC)c1ccc2ncnc(Nc3ccc(OCc4ccccn4)c(Cl)c3)c2c1` and give its measured log10 IC50. 0.67

Consider the compound `CC#C/C(=N\OC[C@@H](C)N)c1ccc2ncnc(Nc3ccc(OCc4ccccn4)c(Cl)c3)c2c1` and give its measured log10 IC50. 0.85

Consider the compound `CC#C/C(=N\OC[C@H]1CNCCO1)c1ccc2ncnc(Nc3ccc(OCc4ccccn4)c(Cl)c3)c2c1` and give its measured log10 IC50. 0.68

Consider the compound CC#C/C(=N\OCC1COCCN1)c1ccc2ncnc(Nc3ccc(COc4cccc(F)c4)c(Cl)c3)c2c1 (centres unmarked) [VIII-220] and give its measured log10 IC50. 2.42

====

Biological target: EGFR (Homo sapiens)
Construct: purchased Carna Biosciences, Inc; host or cells: insect cell expression system
Assay: Enzyme inhibitory activity on EGFR (time resolution fluorescence, biotinylated poly-Glu-Tyr substrate)
Type: biochemical
Conditions: EGFR purified from insect cell expression system; ATP solution 125 μM; room temperature, 60 minutes
Please assign a class to every record based on measured IC50, with ranges small value = under 20 nM, mid value = from 20 nM up to 200 nM, large value = 200 nM and over

Record excerpt, results attached:
compound=CC#C/C(=N\OC[C@@H]1CCCN1)c1ccc2ncnc(Nc3ccc(OCc4cccc(F)c4)c(Cl)c3)c2c1 group_label="small value"
compound=CC#C/C(=N\OC[C@@H]1COCCN1CC#N)c1ccc2ncnc(Nc3ccc(OCc4cccc(F)c4)c(Cl)c3)c2c1 group_label="large value"
compound="CC#CC(=NOC1CNC(CO)C1)c1ccc2ncnc(Nc3ccc(OCc4cccc(F)c4)c(Cl)c3)c2c1 (stereo not drawn)" group_label="mid value"
compound="CC#CC(=NOCCN1CCC(NC(C)=O)C1)c1ccc2ncnc(Nc3ccc(OCc4cccc(F)c4)c(Cl)c3)c2c1 (stereo not drawn)" group_label="mid value"
compound=CNCCO/N=C(\C#CC1CC1)c1ccc2ncnc(Nc3ccc(OCc4cccc(F)c4)c(Cl)c3)c2c1 group_label="mid value"
compound=CC#C/C(=N\OCCN1CCS(=O)(=O)CC1)c1ccc2ncnc(Nc3ccc(OCc4cccc(F)c4)c(Cl)c3)c2c1 group_label="large value"
compound=CC#CC(=NOCCN1CCOCC1)c1ccc2ncnc(Nc3ccc(OCc4cccc(F)c4)c(Cl)c3)c2c1 group_label="large value"
compound=CC#C/C(=N\OCCNCCCN1CCCC1=O)c1ccc2ncnc(Nc3ccc(OCc4cccc(F)c4)c(Cl)c3)c2c1 group_label="small value"

# input for lookup
Textbook exercise: identify the category of the compound given here, `CC#C/C(=N\OCCN1C[C@@H](C)O[C@@H](C)C1)c1ccc2ncnc(Nc3ccc(OCc4cccc(F)c4)c(Cl)c3)c2c1` , according to its measured value. large value

====

Measured IC50 values are reported for all entries that follow.
Tested on: BT-474
Experiment: In vitro cell proliferation inhibition, WST assay
Assay type: cell-based, human
Conditions: Homo sapiens, BT-474, 72 h, BT-474 cells, cultured for 3 days, read-out: BT-474 (nM) proliferation inhibitory activity (IC50 value)
Reply numerically in nM, unit not repeated.

Consider the compound COCC#C/C(=N\OC[C@@H]1COCCN1)c1ccc2ncnc(Nc3ccc(S(=O)(=O)c4ccccc4)cc3)c2c1 [VIII-209] and give its measured IC50. 19

Consider the compound CC#C/C(=N\OCCNC[C@H](C)CO)c1ccc2ncnc(Nc3ccc(OCc4cccc(F)c4)c(Cl)c3)c2c1 [VIII-63] and give its measured IC50. 13

Consider the compound CC#C/C(=N\O[C@H]1CN[C@H](CO)C1)c1ccc2ncnc(Nc3ccc(OCc4ccccn4)c(Cl)c3)c2c1 [VIII-161] and give its measured IC50. 49

Consider the compound CC#C/C(=N\OCCN1CCNC(=O)C1)c1ccc2ncnc(Nc3ccc4c(cnn4Cc4cccc(F)c4)c3)c2c1 [VIII-196] and give its measured IC50. 28

Consider the compound CC#C/C(=N\OCCN1CCC[C@@H]1CO)c1ccc2ncnc(Nc3ccc(OCc4cccc(F)c4)c(Cl)c3)c2c1 [VIII-69] and give its measured IC50. 16

Consider the compound CC#C/C(=N\OCCN1CC[C@@H](OC(N)=O)C1)c1ccc2ncnc(Nc3ccc4c(cnn4Cc4cccc(F)c4)c3)c2c1 [VIII-193] and give its measured IC50. 25

Consider the compound CC#C/C(=N\OC[C@@H]1C[C@@H](O)CN1)c1ccc2ncnc(Nc3ccc(OCc4ccccn4)c(Cl)c3)c2c1 [VIII-156] and give its measured IC50. 24

====

Target: HER2 (Homo sapiens)
Construct: purchased Carna Biosciences, Inc; host or cells: insect cell expression system
Assay: Enzyme inhibitory activity on HER2 (time resolution fluorescence, biotinylated poly-Glu-Tyr substrate)
Type: biochemical
Details: enzyme reaction at room temperature for 60 minutes
Under this convention, 1 denotes IC50 strictly below 10 nM and 0 denotes IC50 at or above 10 nM.

Record excerpt, results attached:
compound="CC#C/C(=N\\OC[C@@H]1C[C@@H](O)CN1)c1ccc2ncnc(Nc3ccc(OCc4ccccn4)c(Cl)c3)c2c1 [VIII-156]" measurement_target="HER2 (Homo sapiens)" group_label=1
compound="CC#C/C(=N\\OC[C@H]1CNC[C@H](C)O1)c1ccc2ncnc(Nc3ccc(OCc4ccccn4)c(Cl)c3)c2c1 [VIII-178]" measurement_target="HER2 (Homo sapiens)" group_label=1
compound="CC#C/C(=N\\OC[C@@H](C)N)c1ccc2ncnc(Nc3ccc(OCc4ccccn4)c(Cl)c3)c2c1 [VIII-129]" measurement_target="HER2 (Homo sapiens)" group_label=1
compound="CC#C/C(=N\\OC[C@@H]1CNCCO1)c1ccc2ncnc(Nc3ccc(OCc4ccccn4)c(Cl)c3)c2c1 [VIII-168]" measurement_target="HER2 (Homo sapiens)" group_label=1
compound="CC#C/C(=N\\OC[C@@H]1CCCN1C)c1ccc2ncnc(Nc3ccc(OCc4ccccn4)c(Cl)c3)c2c1 [VIII-154]" measurement_target="HER2 (Homo sapiens)" group_label=1
compound="CC#C/C(=N\\OCC(=O)NCCO)c1ccc2ncnc(Nc3ccc(OCc4cccc(F)c4)c(Cl)c3)c2c1 [VIII-224]" measurement_target="HER2 (Homo sapiens)" group_label=0
compound="CC#C/C(=N\\OCCN1CCC[C@@H]1CO)c1ccc2ncnc(Nc3ccc(OCc4ccccn4)c(Cl)c3)c2c1 [VIII-150]" measurement_target="HER2 (Homo sapiens)" group_label=0
compound="CC#C/C(=N\\OC[C@@H]1CNCC(=O)N1)c1ccc2ncnc(Nc3ccc(OCc4ccccn4)c(Cl)c3)c2c1 [VIII-179]" measurement_target="HER2 (Homo sapiens)" group_label=1

Given the entry CC#CC(=NOCC1CNCCN1)c1ccc2ncnc(Nc3ccc4c(cnn4Cc4cccc(F)c4)c3)c2c1 (centres unmarked) [VIII-198] , would its reported IC50 be below 10 nM? 1

Given the entry CC#C/C(=N\OCCNC)c1ccc2ncnc(Nc3ccc(Sc4ccccc4)cc3)c2c1 [VIII-213] , would its reported IC50 be below 10 nM? 0

Given the entry CC#C/C(=N\OCCNC)c1ccc2ncnc(Nc3ccc(S(=O)(=O)c4ccccc4)cc3)c2c1 [VIII-214] , would its reported IC50 be below 10 nM? 1

Given the entry CC#C/C(=N\OC[C@H]1CNCC(=O)N1)c1ccc2ncnc(Nc3ccc(OCc4ccccn4)c(Cl)c3)c2c1 [VIII-171] , would its reported IC50 be below 10 nM? 0

Given the entry CC#C/C(=N\OCCNC[C@H]1CCCO1)c1ccc2ncnc(Nc3ccc4c(cnn4Cc4cccc(F)c4)c3)c2c1 [VIII-188] , would its reported IC50 be below 10 nM? 0
